System: intracellular HBV DNA
Test: Real-time PCR for intracellular HBV DNA in HepAD38 cells
Type: cell-based
Conditions: Hepatitis B virus, HePAD38, 65 h, 65 hours treatment
Experimental: HepAD38 cells were cultured in DMEM medium (Welgene) supplemented with 200 unit/mL penicillin, 200 μg/mL streptomycin, and 10% FBS. During maintenance and passage, the cells were cultured together with 0.4 μg/mL tetracycline. Two days before the treatment with compounds for inducing HBV replication was started, the medium was replaced with a tetracycline-free complete growth medium. […]
Reported IC50 values follow for various compounds
Expressed in nM, but write only the number.

{"compound": "O=C(Nc1ccc(F)c(Cl)c1)N(Cc1n[nH]c2c1CCC2)c1ccc(O)cc1 [Example 114]", "tgt": "intracellular HBV DNA", "unit_name": "nM", "IC50": 14}
{"compound": "O=C(Nc1ccc(F)c(Cl)c1)N(Cc1n[nH]c2c1CCCO2)c1ccon1 [Example 136]", "tgt": "intracellular HBV DNA", "unit_name": "nM", "IC50": 48}
{"compound": "COc1ccc(N(Cc2n[nH]c3c2COCC3)C(=O)Nc2ccc(F)c(Cl)c2)cn1 [Example 55]", "tgt": "intracellular HBV DNA", "unit_name": "nM", "IC50": 17}

Attention now shifts to the item below.
Task: Provide the documented IC50 with intracellular HBV DNA as the system for N#Cc1cncc(N(Cc2n[nH]c3c2COCC3)C(=O)Nc2ccc(F)c(Cl)c2)c1 [Example 129]
Output: 60

This collection of values is drawn from patent US20250009742A1.
